- Species: Cavia porcellus
- Assay summary: Equipotent molar ratio, ratio of compound ID50 to guanethidine ID50 for adrenergic receptor in guinea pig vas deferens assessed as inhibition of electrically-induced release of norepinephrine
Measured EPMR, listed per entry for reference.

compound="N=C(N)NC[C@H]1C[C@H]1c1ccccc1 (relative stereo)" reported_result=4.55
compound=N=C(N)NC/C=C/C1CCCCC1 reported_result=0.39
compound=N=C(N)NC[C@@H]1C[C@H]1c1ccccc1 reported_result=3.65

Quick one: EPMR for N=C(N)NC1CCc2ccc([N+](=O)[O-])cc21 (stereo unspecified) ?
10

Quick one: EPMR of `N=C(N)NCCc1cccc2ccccc12` ?
6

Look at this compound and give its reported EPMR. `N=C(N)NCCc1ccc2ccccc2c1`
2.5

###

- Species on record: Cavia porcellus
- Assay summary: Antagonist activity at adrenergic receptor in guinea pig vas deferens assessed as inhibition of electrically-induced release of norepinephrine measured every 10 mins
- Type: tissue-based
ID50 reference
Expressed in µM, but write only the number.

Worked cases, answers included:
compound="N=C(N)NC1CCc2ccccc21 (configuration not stated)" reported_result=5.8
compound="N=C(N)NCC1Cc2ccccc21 (configuration not stated)" reported_result=2.5
compound=N=C(N)NC[C@@H]1C[C@H]1c1ccccc1 reported_result=7.3
compound=N=C(N)N[C@@H]1C[C@H]1c1ccccc1 reported_result=5.05
compound=N=C(N)NCCc1ccc2ccccc2c1 reported_result=5
compound="N=C(N)NC[C@H]1C[C@H]1c1ccccc1 (relative stereo)" reported_result=9.1

Next compound, ID50 to be filled in.
I'd like to know its ID50. The compound in question is `N=C(N)NCCN1CCCCCCC1`
2

###

Listed here are compounds together with their documented EPMR.
- Species on record: Cavia porcellus
- Assay summary: Equipotent molar ratio, ratio of compound ID50 to guanethidine ID50 for adrenergic receptor in guinea pig vas deferens assessed as inhibition of electrically-induced release of norepinephrine
Would you mind answering with just the numeric figure?

Solved entries (count: 4):
compound="N=C(N)NCC1Cc2ccccc21 (stereo not given)" reported_result=1.25
compound=N=C(N)NCc1cccc2ccccc12 reported_result=0.095
compound="N=C(N)NC1CCc2ccccc21 (stereo not given)" reported_result=2.9
compound=N=C(N)NC/C=C\C1CCCCC1 reported_result=0.049

What value of EPMR has been reported for the following compound? `N=C(N)N[C@@H]1C[C@H]1c1ccccc1`
2.52

###

- Organism: Cavia porcellus
- Assay summary: Antagonist activity at adrenergic receptor in guinea pig vas deferens assessed as inhibition of electrically-induced release of norepinephrine measured every 10 mins
- Assay type: tissue-based
Each entry below lists one item and its recorded ID50 value.
Just the number please, in ×10⁻⁵ M, no unit attached.

compound="N=C(N)NC1CCc2ccc([N+](=O)[O-])cc21 (stereo not given)" value_kind=ID50 unit_string="×10⁻⁵ M" reported_result=2

Now, please, on to the next compound.
Requested field: ID50. Item: `N=C(N)NCCc1cccc2ccccc12`
1.2

###

- Species on record: Cavia porcellus
- Assay summary: Antagonist activity at adrenergic receptor in guinea pig vas deferens assessed as inhibition of electrically-induced release of norepinephrine measured every 10 mins
- Assay type: tissue-based
Value kind: ID50 (×10⁻⁷ M)
Please respond with the number in ×10⁻⁷ M and leave the unit unwritten.

input_smiles=N=C(N)NC/C=C/C1CCCCC1 value_kind=ID50 unit_string="×10⁻⁷ M" reported_result=7.7

Turning to the following molecule.
Please report the recorded ID50 for `N=C(N)NCc1cccc2ccccc12` .
1.9
